Test: protein stability index of a GFP-peptide fusion (GPS, HEK-293T) (PSI 1-6); higher = more stable;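 further: 24-mer peptide tiles fused after GFP, lentivirally expressed, FACS-sorted into six equal bins by GFP/DsRed ratio, decoded by Illumina sequencing, PSI is the read-weighted mean bin number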
Conditions: treatment: MLN4924 1 uM, 8 h; c terminus: a fixed tail appended
# protein stability index per entry

Some solved cases for reference:
sequence-content	protein stability index
VRRRYSDFEWLRSELERESKVVVP [SNX3]	2.33
VHVISLHIWELSSIKNSLKVAAIS [PTGFR]	3.07
LMDVTGGPFDLMSRRVIAANNRIL [IMPA1]	2.69

Prompt: Give its protein stability index value. Item: HHRVQENQMDKARRHPQGAWKELD [CHGB]
Response: 4.4

Prompt: Moving on to the next sequence: VLRCQLSAEEVRFPVSVTQQSPAA [C2CD2L]
Response: 3.45

Prompt: Moving on to the next sequence: HTNCFELSIYVGCDKYPHESQLPE [CPXM2]
Response: 2.44

Prompt: Moving on to the next sequence: GRGSLSSGGQTSWDSGCLAPPSTR [PLEKHN1]
Response: 4.15

Prompt: Moving on to the next sequence: LISSGMSSHKQGHTSSEYDMLREM [TAF7L]
Response: 3.84

Prompt: Moving on to the next sequence: MHTNYLSACSFTNSDMQILTASGD [GNB5]
Response: 3.27

Prompt: Moving on to the next sequence: GACPGADEAGGGAEGDSWEEEGFG [WEE1]
Response: 5.54

Prompt: Moving on to the next sequence: SMAKEVIAKELSKTYQETPEIDMF [ZBED1]
Response: 4.05

Prompt: Moving on to the next sequence: HASSYISPEKEEQYIAQFTSQFLS [PRAME]
Response: 3.31

Prompt: Moving on to the next sequence: PEMYILKGGYKEFFPQHPNFCEPQ [CDC25B]
Response: 2.84

###

# protein stability index per entry
Test: protein stability index of a GFP-peptide fusion (GPS, HEK-293T) (PSI 1-6); higher = more stable
Conditions: treatment: DMSO; c terminus: native
Returns: the value as a bare number; no unit string appended.

Some solved cases for reference:
sequence-content	protein stability index
VGPLAQDPQSPMAGLRWLDSWDF [POMT2]	3.34
VVEEELFHQQGTPRASNRSCAIM [LMNB1]	2.77
NALLSKRLLALTSSDLGCQPSRT [TMEM192]	2.52

For the next question, use this sequence.
Prompt: Give its protein stability index value. Item: RQKVLSLPLPDPLKYYLLYYREK [PCMTD2]
Response: 2.14

###

Experiment: protein stability index of a GFP-peptide fusion (GPS, HEK-293T) (PSI 1-6); higher = more stable
Settings: treatment: MLN4924 1 uM, 8 h; c terminus: a fixed tail appended
# protein stability index per entry
Returns: the value as a bare number; no unit string appended.

sequence-content	assay-readout	reported-result
VPRYTGVAPQDQCKLTCQAQALGY [ADAMTS4]	protein stability index	2.65
MEEVCGGEKPYLSPDILEEKHCEF [ATL3]	protein stability index	5.01
SQVALKIIRNVGKYREAARLEINV [CLK3]	protein stability index	2.62
AFMNQEITKAFHVRKANRIKECLS [RHOBTB1]	protein stability index	2.53
PGVLKVLWLTASQPCSIVDVEFLP [LPCAT4]	protein stability index	2.87

Prompt: Give its protein stability index value. Item: GEDQWNPNGKHSTNFVSRYDPRFN [KLHL14]
Response: 3.57

Prompt: Moving on to the next sequence: VSLRYSGATAASETLSGHGPLAQP [ADAMTS4]
Response: 3.21

###

Assay: protein stability index of a GFP-peptide fusion (GPS, HEK-293T) (PSI 1-6); higher = more stable
Conditions: treatment: MLN4924 1 uM, 8 h; c terminus: a fixed tail appended
assay-readout: protein stability index
Returns: the value as a bare number; no unit string appended.

sequence-content	reported-result
KRIAHFDLKPENIMLLDKNVPNPR [DAPK3]	3.25
EDLLQQMLERRYTPYPNLYPDQSP [CLCN6]	3.29
KSEEELAECFRIFDRNADGYIDPE [TNNC2]	5.29
KSRRSRSESETSTMAAKKNRQSSD [C18orf25]	5.53

For the next question, use this sequence.
Prompt: Give its protein stability index value. Item: GSSSFSLKGYPSLMRSQSPKAQPQ [TRIM29]
Response: 3.73

###

Test: protein stability index of a GFP-peptide fusion (GPS, HEK-293T) (PSI 1-6); higher = more stable
Details: treatment: DMSO; c terminus: a fixed tail appended
# protein stability index per entry
Returns: the value as a bare number; no unit string appended.

Some solved cases for reference:
sequence-content	protein stability index
SDKEIVAEAERLDVKAMGPLVLTE [EIF5]	5.08
EDDDEEDTDKLLNSASDPSLKDGL [PSD2]	5.51
AGIGRTGTFCSLDICLAQLEELGT [PTPN9]	2.23
DVHELFLQMAVLVEKQADTLNVIE [STX11]	2.2

Prompt: Give its protein stability index value. Item: ARAFAEKNNLSFIETSALDSTNVE [RAB11B]
Response: 4.51

Prompt: Moving on to the next sequence: KLQLQLNETKSQAFVSNSPKLFCP [PLD5]
Response: 2.87

Prompt: Moving on to the next sequence: QELASLLRTYLARLPWAGQLTKEL [PBXIP1]
Response: 2.95

Prompt: Moving on to the next sequence: EYSKFCRMSYQDPAQLSCLPYLEH [NFE2L1]
Response: 2.52

Prompt: Moving on to the next sequence: QAINNAINYLGAESLRPLVQTPPG [IKZF1]
Response: 2.39

Prompt: Moving on to the next sequence: AQNREPESVEQLESRIVEQENAIQ [SNX8]
Response: 5.54

Prompt: Moving on to the next sequence: LLLGAGESGKSTIVKQMKIIHEAG [GNAI1]
Response: 2.51

Prompt: Moving on to the next sequence: EFAGSSPQSSKSTVVKSLIDNSSE [FAN1]
Response: 5.08

Prompt: Moving on to the next sequence: ATDPFVAFHINKGLVKKYMNSLLI [FADS1]
Response: 2.46

Prompt: Moving on to the next sequence: QQQCHEMAERLEDSVLKGMQAASS [SDE2]
Response: 4.17

Prompt: Moving on to the next sequence: SLEESVGKPLYLIFRNLCQMQEDN [INTS3]
Response: 2.45

Prompt: Moving on to the next sequence: LCVILYKKVHKGTVPKNDADDESE [GLT8D2]
Response: 2.02

Prompt: Moving on to the next sequence: PPETKHQALSGTPKKGPAPSLSPG [TSPAN10]
Response: 5.31

Prompt: Moving on to the next sequence: LFDLMRRMLEFDPAQRITLAEALL [CLK3]
Response: 2.05

Prompt: Moving on to the next sequence: ARQEGLTFFGTELAPVRQQELASL [PBXIP1]
Response: 3.56

Prompt: Moving on to the next sequence: SISLMYGGSKRKSSFFSSPPYFED [SLA]
Response: 2.37

###

# protein stability index per entry
Test: protein stability index of a GFP-peptide fusion (GPS, HEK-293T) (PSI 1-6); higher = more stable
Conditions: treatment: MLN4924 1 uM, 8 h; c terminus: a fixed tail appended
Returns: the value as a bare number; no unit string appended.

Some solved cases for reference:
sequence-content	protein stability index
DVMLEELSLLTNRGSKMFKLRQMR [MYOZ1]	2.67
NVFKELQIMQGLEHPFLVNLWYSF [STK32A]	2.49
ENYETVISLALFVLPKPKVISCLE [ZNF75A]	3.46
LRRPRPVQRTQSVPVRRPARRRQS [RASAL3]	5.19
LNVELDPEIQKVRAQEREQIKALN [KRT71]	4.75

Prompt: Give its protein stability index value. Item: YTTEFHELEKIGSGEFGSVFKCVK [WEE1]
Response: 3

Prompt: Moving on to the next sequence: ALKRQLPFRGDEGIFEESFIEERR [SNX12]
Response: 4.15

Prompt: Moving on to the next sequence: THSREKSSQESGEEAGSQENHPQE [CHGB]
Response: 5.6

Prompt: Moving on to the next sequence: FATQTEELNKQVVSSSEQLQSCQA [KRT34]
Response: 4.86

Prompt: Moving on to the next sequence: SPDDPESVKIIFKLPNDSRVERRF [FAF2]
Response: 3.46

Prompt: Moving on to the next sequence: EIRRKEKEAVLAMEKKSKPKNSVW [RIT1]
Response: 4.29

Prompt: Moving on to the next sequence: QHAALGGTATRQNNWPPLPSFCPV [SCAMP3]
Response: 3.39

Prompt: Moving on to the next sequence: GKKRCKDIKRLLVNFMYLQSLLQP [SMG5]
Response: 2.48

Prompt: Moving on to the next sequence: IVKQMKIIHEAGYSEEECKQYKAV [GNAI1]
Response: 3.77

Prompt: Moving on to the next sequence: LGPLLSEPLVLYNQNLSNRPSFNR [MYOZ1]
Response: 2.95

Prompt: Moving on to the next sequence: QDGSPTTSRRPSGTGTGPEDGRPS [PDLIM4]
Response: 5.66

Prompt: Moving on to the next sequence: IQKLTQIETGENVTGMELEFKRLA [PTPRD]
Response: 3.55

Where do the numbers come from? From the supplement of paper PMC10567573.
